variants and their reported protein stability index
B1: PI4K2A (parent)
chain: FVKDPQGRIIAVFKPKNEEPYGHL

variants of: B1; assay: protein stability index of a GFP-peptide fusion (GPS, HEK-293T) (PSI 1-6); higher = more stable; details: c terminus: a fixed tail appended;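 note: lentivirally expressed fusions sorted by FACS into six bins by GFP to DsRed ratio, PSI derived from sequencing read proportions per bin multiplied by bin number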
Give the value as a plain number.

[
  {
    "VARIANT_KEY": "L24F",
    "PROPERTY_LABEL": "protein stability index",
    "MEASURED": 1.53
  },
  {
    "VARIANT_KEY": "I10H",
    "PROPERTY_LABEL": "protein stability index",
    "MEASURED": 2.33
  },
  {
    "VARIANT_KEY": "L24Q",
    "PROPERTY_LABEL": "protein stability index",
    "MEASURED": 2.03
  },
  {
    "VARIANT_KEY": "L24Y",
    "PROPERTY_LABEL": "protein stability index",
    "MEASURED": 1.41
  }
]

Any idea what protein stability index was measured for F1T ? 3.36

Any idea what protein stability index was measured for F1K ? 2.8

Any idea what protein stability index was measured for E18Y ? 2.98

Any idea what protein stability index was measured for V12G ? 2.44

Any idea what protein stability index was measured for Y21I ? 2.91

Numbers sourced from the supplement of paper PMC10567573.
